System: MDA-MB-231 (Breast Carcinoma)
assayProcedure: combination Emax (second highest fraction inhibited in the dose matrix, 72 h); higher = more inhibition; extreme values may be limits of the assay
Measured combination Emax of individual entries

compound | measurement
NC1(C(=O)N[C@@H](CCO)c2ccc(Cl)cc2)CCN(c2ncnc3[nH]ccc23)CC1 [Capivasertib] + COc1nnc2ccc(N3CCC(c4ccc(OCCN5CCN(C)C(=O)[C@H]5C)cc4)CC3)nn12 [AZD5153] (first compound max 10 µM, 7x7, partner max 1 µM) | 0.703

Read the next record carefully.
[in] May I ask what combination Emax has been recorded for CN(CCO)CC[C@H](CSc1ccccc1)Nc1ccc(S(=O)(=O)NC(=O)c2ccc(N3CCC([C@@H](O)c4ccccc4-c4ccc(Cl)cc4)CC3)cc2)cc1S(=O)(=O)C(F)(F)F [AZD4320] + CC(=O)O[C@H]1C(=O)[C@@]2(C)[C@H]([C@H](OC(=O)c3ccccc3)[C@]3(O)C[C@H](OC(=O)[C@H](O)[C@@H](NC(=O)c4ccccc4)c4ccccc4)C(C)=C1C3(C)C)[C@]1(OC(C)=O)CO[C@@H]1C[C@@H]2O [Paclitaxel] (first compound max 1 µM, 7x7, partner max 3 µM) ?
[out] 0.984

Origin of the recorded values: the supplement of paper PMC11061612
